Data provenance: patent US20020198254A1

System: WST-CEM T-cell line
Experiment: Toxicity screen on WST-CEM T-cell line
Type: cell-based
Details: WST-CEM T-cell line; ND = no drug control
property: CEM: toxicity screen, minimum percent verses a no drug control
Numeric answer plus unit only.

Field: example entries. Status: answers known.
N=C(N)NCC(=O)Nc1cc(C(=O)NCCNC(=O)c2cc(NC(=O)CNC(=N)N)cn2CC2CC2)n(CC2CC2)c1 : 92.9% ND
CC/N=C(/NCCN(C)C)Nc1cc(C(=O)Nc2ccc(NC(=O)c3cc(N/C(=N/CC)NCCN(C)C)cn3CCC(C)C)cc2)n(CCC(C)C)c1 : 3.7% ND
CC(C)CCn1cc(NC(=O)CNC(=N)N)cc1C(=O)Nc1ccc2ccc(NC(=O)c3cc(NC(=O)CNC(=N)N)cn3CCC(C)C)cc2c1 [Compound 189b] : 10.2% ND
NCC(=O)Nc1cc(C(=O)NCCNC(=O)c2cc(NC(=O)CN)cn2CC2CC2)n(CC2CC2)c1 : 100% ND
O=C(NC1CCC(NC(=O)c2cc(NC(=O)C3CCCN3)cn2CC2CC2)CC1)c1cc(NC(=O)C2CCCN2)cn1CC1CC1 (centres unmarked) : 91.1% ND
CC(C)CCn1cc(NC(=O)CN)cc1C(=O)Nc1ccc(NC(=O)c2cc(NC(=O)CN)cn2CCC(C)C)cc1 [Compound 188a] : 6.9% ND
CC(C)CCn1cc(NC(=O)CN)cc1C(=O)Nc1ccc2ccc(NC(=O)c3cc(NC(=O)CN)cn3CCC(C)C)cc2c1 [Compound 188b] : 9.2% ND

Turning now to a further record.
Which measured CEM: toxicity screen, minimum percent verses a no drug control value corresponds to CC(C)CCn1cc(NC(=O)CNC(=N)N)cc1C(=O)Nc1ccc(NC(=O)c2cc(NC(=O)CNC(=N)N)cn2CCC(C)C)cc1 [Compound 189a] ?
7.7% ND
